# System: CD69 positive cells that are also CD20 positive, stimulated by anti-IgM, in human whole blood
# method_summary: CD69 whole blood assay (human whole blood, anti-IgM stimulated)
# Format: cell-based
# condition_description: 20 h, read-out: IC50 in the CD69 Whole Blood Assay

| smiles_code | IC50 |
| --- | --- |
| CN(C)C1CCN(Cc2cc3nc(-c4ccc(O)c5nccn45)nc(N4CCOCC4)c3s2)CC1 | 29 nM |

* * *

pIC50 for assorted molecules
# System: CD69 positive cells that are also CD20 positive, stimulated by anti-IgM, in human whole blood
# method_summary: CD69 whole blood assay (human whole blood, anti-IgM stimulated)
# Type: cell-based
# condition_description: concentration decreasing by 50% the percent CD69 positive of CD20 positive cells stimulated by anti-IgM, 20 hours, read-out: IC50 in the CD69 Whole Blood Assay
pIC50: −log10 of the molar value.
reported_property: pIC50

| smiles_code | val |
| --- | --- |
| CCc1nc2ccccc2n1-c1nc(N2CCOCC2)c2nc(CN3CC([C@@H](O)C(C)C)C3)n(C)c2n1 | 7.29 |
| Cn1c(CN2CCN(C(C)(C)CO)CC2)nc2c(N3CCOCC3)nc(-n3c(CCO)nc4ccccc43)nc21 | 7.25 |
| CCc1nc2ccccc2n1-c1nc(N2CCOCC2)c2nc(CN3CCC(C4COC4)CC3)n(C)c2n1 | 7.36 |

* * *

Listed here: items and their measured IC50 p110 alpha/IC50 p110 delta.
# study_target: p110δ/p85α (PI3K p110 delta) (Homo sapiens)
# Construct: purchased Upstate Group, Millipore; Dundee, UK
# method_summary: PI3K isoform inhibition assay (fluorescence polarization PIP3 displacement; alternatively radiometric), p110 delta
# Format: biochemical
# condition_description: delta/alpha selectivity: ratio of p110 alpha IC50 to p110 delta IC50

| smiles_code | IC50 p110 alpha/IC50 p110 delta |
| --- | --- |
| CC(C)(C(N)=O)N1CCN(Cc2nc3c(N4CCOCC4)nc(-c4cncc5[nH]ccc45)nc3s2)CC1 | 32 |
| COc1cccc(-c2nc3c(N4CCOCC4)nc(-n4c(C(C)C)nc5ccccc54)nc3n2C)c1 | 23 |
| CC(C)c1nc2ccccc2n1-c1nc(N2CCOCC2)c2nc(CN3CCN(C(C)(C)CO)CC3)[nH]c2n1 | 111 |
| Cc1c(CN2CCN(C(C)(C)C(N)=O)CC2)sc2c(N3CCOCC3)nc(-c3cncc4[nH]ccc34)nc12 | 29 |
| Cn1c(CN2CC(C3CCOCC3)C2)nc2c(N3CCOCC3)nc(-n3c(C4CC4)nc4ccccc43)nc21 | 75 |
| CN(C)C1CCN(Cc2cc3nc(-c4ccc(O)c5nccn45)nc(N4CCOCC4)c3s2)CC1 | 23 |

* * *

# study_target: p110δ/p85α (PI3K p110 delta) (Homo sapiens, UniProt O00329)
# Construct: Dundee, UK
# Sequence (O00329 whole entry): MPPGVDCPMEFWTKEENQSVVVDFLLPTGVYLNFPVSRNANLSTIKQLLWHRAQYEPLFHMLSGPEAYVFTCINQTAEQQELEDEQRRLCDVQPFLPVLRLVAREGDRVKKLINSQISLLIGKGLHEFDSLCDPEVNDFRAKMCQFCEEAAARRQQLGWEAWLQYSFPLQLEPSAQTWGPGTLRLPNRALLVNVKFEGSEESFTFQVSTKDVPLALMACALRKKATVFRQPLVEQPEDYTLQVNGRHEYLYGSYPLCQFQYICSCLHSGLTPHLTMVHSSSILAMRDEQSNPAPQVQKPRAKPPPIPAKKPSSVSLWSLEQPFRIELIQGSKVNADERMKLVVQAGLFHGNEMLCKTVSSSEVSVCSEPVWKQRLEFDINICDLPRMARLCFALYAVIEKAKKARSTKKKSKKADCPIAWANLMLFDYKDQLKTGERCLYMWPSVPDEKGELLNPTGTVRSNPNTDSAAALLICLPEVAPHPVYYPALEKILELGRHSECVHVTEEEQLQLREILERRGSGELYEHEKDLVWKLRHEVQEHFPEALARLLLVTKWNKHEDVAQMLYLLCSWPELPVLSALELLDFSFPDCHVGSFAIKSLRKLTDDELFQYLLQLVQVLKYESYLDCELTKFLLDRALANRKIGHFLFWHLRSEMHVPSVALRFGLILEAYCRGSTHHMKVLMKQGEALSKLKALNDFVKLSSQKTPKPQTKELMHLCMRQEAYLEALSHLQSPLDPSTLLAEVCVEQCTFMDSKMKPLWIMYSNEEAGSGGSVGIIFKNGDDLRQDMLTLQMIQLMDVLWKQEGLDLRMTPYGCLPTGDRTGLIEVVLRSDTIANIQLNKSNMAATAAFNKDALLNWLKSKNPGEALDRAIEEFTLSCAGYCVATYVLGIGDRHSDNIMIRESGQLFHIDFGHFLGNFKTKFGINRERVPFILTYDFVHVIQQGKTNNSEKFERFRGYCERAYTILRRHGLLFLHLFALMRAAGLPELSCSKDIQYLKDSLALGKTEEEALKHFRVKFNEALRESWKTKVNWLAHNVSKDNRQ
# Sequence (P27986 whole entry partner): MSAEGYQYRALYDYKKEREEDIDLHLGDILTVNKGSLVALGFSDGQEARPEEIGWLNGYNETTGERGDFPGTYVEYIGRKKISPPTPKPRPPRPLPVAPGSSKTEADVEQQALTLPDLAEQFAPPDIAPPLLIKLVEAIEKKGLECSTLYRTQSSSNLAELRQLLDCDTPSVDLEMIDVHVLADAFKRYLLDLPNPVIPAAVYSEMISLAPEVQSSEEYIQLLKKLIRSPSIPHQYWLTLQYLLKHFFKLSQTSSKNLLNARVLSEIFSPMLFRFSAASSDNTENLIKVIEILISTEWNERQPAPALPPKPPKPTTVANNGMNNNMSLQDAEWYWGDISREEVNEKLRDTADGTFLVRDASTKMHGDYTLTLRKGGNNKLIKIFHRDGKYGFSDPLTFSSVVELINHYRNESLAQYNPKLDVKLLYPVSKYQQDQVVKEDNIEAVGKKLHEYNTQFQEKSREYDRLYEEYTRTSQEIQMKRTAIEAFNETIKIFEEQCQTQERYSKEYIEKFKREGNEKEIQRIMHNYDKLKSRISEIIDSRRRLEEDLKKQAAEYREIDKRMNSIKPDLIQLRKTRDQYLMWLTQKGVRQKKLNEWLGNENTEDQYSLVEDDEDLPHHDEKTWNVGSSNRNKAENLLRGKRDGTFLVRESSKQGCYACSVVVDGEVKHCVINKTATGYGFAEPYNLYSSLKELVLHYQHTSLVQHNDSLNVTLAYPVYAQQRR
# method_summary: PI3K isoform inhibition assay (fluorescence polarization PIP3 displacement; alternatively radiometric), p110 delta
# condition_description: PI3K p110 delta binding IC50

| smiles_code | IC50, nM |
| --- | --- |
| Cc1nc2ccccc2n1-c1nc(N2CCOCC2)c2oc(CN3CCN(C(C)(C)C(N)=O)CC3)cc2n1 | 2.74 |
| CN(C)C1CCN(Cc2cc3nc(-c4ccc(O)c5nccn45)nc(N4CCOCC4)c3s2)CC1 | 25.8 |
| CCc1nc2ccccc2n1-c1nc(N2CCOCC2)c2nc(CC3CN(C4CCS(=O)(=O)CC4)C3)n(C)c2n1 | 0.589 |
| CC(C)(C(N)=O)N1CCN(Cc2nc3nc(-c4cccc5nccn45)nc(N4CCOCC4)c3s2)CC1 | 42.9 |
| CC(C)(C(N)=O)N1CCN(Cc2nc3c(N4CCOCC4)nc(-c4cncc5[nH]ccc45)nc3s2)CC1 | 1.3 |
